# protocol notes: Half life in DIO mouse
# Type: ADME, organism-based
# experimental context: in vivo

# smiles repr, half-life, h
measured = [
    ("CC(C)(C)NC(=O)Nc1ccc(-c2c(N)nc(N)nc2COCc2ccccc2)cc1", 4.5),
]

---

# target or test system: Dihydrofolate reductase (Homo sapiens)
# Sequence (P00374 whole entry): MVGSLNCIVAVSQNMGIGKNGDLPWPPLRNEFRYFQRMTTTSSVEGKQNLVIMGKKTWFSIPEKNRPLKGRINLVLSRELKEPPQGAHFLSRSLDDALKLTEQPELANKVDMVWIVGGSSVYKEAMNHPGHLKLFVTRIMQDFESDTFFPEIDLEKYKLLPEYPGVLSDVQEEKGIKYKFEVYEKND
# protocol notes: Inhibition of human recombinant DHFR assessed as rate of depletion of NADPH
quantity: IC50

# smiles repr, quantity, obs value
data = [
    ("CC(C)(C)NC(=O)Nc1ccc(-c2c(N)nc(N)nc2COCc2ccccc2)cc1", "IC50", "> 100 µM"),
    ("Nc1nc(N)c(-c2ccc(NC(=O)C3CCCC3)cc2)c(COCc2ccccc2)n1", "IC50", "> 10 µM"),
    ("Nc1nc(N)c(-c2ccc(NC(=O)Cc3ccccc3)cc2)c(COCc2ccccc2)n1", "IC50", "> 10 µM"),
    ("Nc1nc(N)c(-c2ccc(NC(=O)Cc3ccsc3Br)cc2)c(COCc2ccccc2)n1", "IC50", "> 10 µM"),
    ("CCc1nc(N)nc(N)c1-c1ccc2c(c1)nc(-c1ccccc1)n2Cc1ccc(S(C)(=O)=O)cc1", "IC50", "2.3 µM"),
    ("Nc1nc(N)c(-c2ccc(NC(=O)NCCc3ccccc3)cc2)c(COCc2ccccc2)n1", "IC50", "> 10 µM"),
    ("Nc1nc(N)c(-c2ccc(NC(=O)Nc3ccccc3)cc2)c(COCc2ccccc2)n1", "IC50", "> 10 µM"),
    ("CC(C)NC(=O)Nc1ccc(-c2c(N)nc(N)nc2COCc2ccccc2)cc1", "IC50", "> 10 µM"),
    ("CCc1nc(N)nc(N)c1-c1ccc2c(c1)nc(C1CCCC1)n2Cc1ccc(S(C)(=O)=O)cc1", "IC50", "1.83 µM"),
    ("Nc1nc(N)c(-c2ccc(NC(=O)C3CC3)cc2)c(COCc2ccccc2)n1", "IC50", "28 µM"),
    ("CCc1nc(N)nc(N)c1-c1ccc(NCc2ccc(S(C)(=O)=O)cc2)cc1", "IC50", "< 0.01 µM"),
]

---

# target or test system: Growth hormone secretagogue receptor type 1 (Homo sapiens, UniProt Q92847)
# Sequence (Q92847 whole entry): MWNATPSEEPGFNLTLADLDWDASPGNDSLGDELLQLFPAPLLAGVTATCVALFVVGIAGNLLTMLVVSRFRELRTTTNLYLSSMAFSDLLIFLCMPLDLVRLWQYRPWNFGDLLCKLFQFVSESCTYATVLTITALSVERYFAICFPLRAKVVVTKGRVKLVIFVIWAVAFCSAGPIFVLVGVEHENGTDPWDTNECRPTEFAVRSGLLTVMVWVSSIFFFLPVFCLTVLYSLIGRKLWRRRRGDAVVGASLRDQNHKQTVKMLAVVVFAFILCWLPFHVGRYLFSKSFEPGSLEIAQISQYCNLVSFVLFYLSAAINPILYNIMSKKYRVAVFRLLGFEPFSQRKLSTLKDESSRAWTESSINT
# protocol notes: Activity at GHS receptor by calcium flux assay in CHO-K cells
# Type: functional, cell-based
Measured IC50 accompanies every entry in the list below.

# molecule, unit label, limit operator, IC50
measured = [
    ("CC(=O)Nc1ccc(-c2c(N)nc(N)nc2COCc2ccccc2)cc1", "nM", ">", 10000),
    ("CCc1nc(N)nc(N)c1-c1ccc(NCc2ccc(S(C)(=O)=O)cc2)cc1", "nM", "=", 19),
    ("Nc1nc(N)c(-c2ccc(NC(=O)Cc3ccsc3)cc2)c(COCc2ccccc2)n1", "nM", "=", 382),
    ("CC(NC(=O)Nc1ccc(-c2c(N)nc(N)nc2COCc2ccccc2)cc1)c1ccccc1 (stereo not given)", "nM", "=", 10),
    ("CCc1nc(N)nc(N)c1-c1ccc2c(c1)nc(-c1ccccc1)n2Cc1ccc(S(C)(=O)=O)cc1", "nM", "=", 249),
]

---

# protocol notes: Bioavailability in rat
# Assay type: ADME, organism-based
# experimental context: in vivo

# smiles repr, unit label, bioavailability
data = [
    ("CCc1nc(N)nc(N)c1-c1ccc(NCc2ccc(Cl)cc2)cc1", "%", 75),
    ("Nc1nc(N)c(-c2ccc(NC(=O)C3CC3)cc2)c(COCc2ccccc2)n1", "%", 32),
]

---

Measured Kp at 8 h accompanies every entry in the list below.
# protocol notes: Ratio of drug level in brain against plasma in rat after 8 hrs
# Assay type: ADME, organism-based
# experimental context: read-out: BBR

# smiles repr, Kp at 8 h
records = [
    ("Nc1nc(N)c(-c2ccc(NC(=O)C3CC3)cc2)c(COCc2ccccc2)n1", 0.97),
    ("Nc1nc(N)c(-c2ccc(NCc3ccc(Cl)cc3)cc2)c(COCc2ccccc2)n1", 1.4),
]

---

# protocol notes: AUC in orally dosed rat
# Format: ADME, organism-based
# experimental context: plasma, po

# smiles repr, unit label, AUC
measured = [
    ("Nc1nc(N)c(-c2ccc(NC(=O)C3CC3)cc2)c(COCc2ccccc2)n1", "ng·h/mL", 820),
]

---

# target or test system: Growth hormone secretagogue receptor type 1 (Homo sapiens, UniProt Q92847)
# protocol notes: Activity at GHS receptor by calcium flux assay in CHO-K cells
# Assay type: functional, cell-based
quantity: log10(IC50) (log10 of the value in nM)

# smiles repr, log10(IC50)
rows = [
    ("Nc1nc(N)c(-c2ccc(NC(=O)Cc3ccsc3Br)cc2)c(COCc2ccccc2)n1", 2.14),
    ("Nc1nc(N)c(-c2ccc(NC(=O)Nc3ccccc3)cc2)c(COCc2ccccc2)n1", 1.94),
    ("CC(C)NC(=O)Nc1ccc(-c2c(N)nc(N)nc2COCc2ccccc2)cc1", 1.75),
    ("CC(C)CC(=O)Nc1ccc(-c2c(N)nc(N)nc2COCc2ccccc2)cc1", 2.03),
    ("CCc1nc(N)nc(N)c1-c1ccc2c(c1)nc(C1CCCC1)n2Cc1ccc(S(C)(=O)=O)cc1", 2.04),
    ("Nc1nc(N)c(-c2ccc(NC(=O)CCc3ccccc3)cc2)c(COCc2ccccc2)n1", 2.54),
    ("Nc1nc(N)c(-c2ccc(NC(=O)NCc3ccccc3)cc2)c(COCc2ccccc2)n1", 1.53),
    ("Nc1nc(N)c(-c2ccc(NC(=O)C3CC3)cc2)c(COCc2ccccc2)n1", 2.27),
    ("Nc1nc(N)c(-c2ccc(NC(=O)Cc3ccccc3)cc2)c(COCc2ccccc2)n1", 2.61),
    ("CC(C)(C)NC(=O)Nc1ccc(-c2c(N)nc(N)nc2COCc2ccccc2)cc1", 0.85),
    ("Nc1nc(N)c(-c2ccc(NC(=O)C3CCCC3)cc2)c(COCc2ccccc2)n1", 1.60),
    ("Nc1nc(N)c(-c2ccc(NC(=O)NCCc3ccccc3)cc2)c(COCc2ccccc2)n1", 0.85),
    ("CCc1nc(N)nc(N)c1-c1ccc2c(c1)ncn2Cc1ccc(S(C)(=O)=O)cc1", 1.04),
]

---

# target or test system: Growth hormone secretagogue receptor type 1 (Homo sapiens)
# protocol notes: Inhibition of [125I]ghrelin binding to GHS receptor in CHO-K cells
# Format: cell-based
pIC50: −log10 of the molar value.
Measured pIC50 accompanies every entry in the list below.
quantity: pIC50

# molecule, limit operator, obs value
rows = [
    ("CCc1nc(N)nc(N)c1-c1ccc(NCc2ccc(S(C)(=O)=O)cc2)cc1", "=", 8.15),
    ("Nc1nc(N)c(-c2ccc(NC(=O)c3ccsc3)cc2)c(COCc2ccccc2)n1", "=", 6.90),
    ("Nc1nc(N)c(-c2ccc(NC(=O)Cc3cccnc3)cc2)c(COCc2ccccc2)n1", "<", 6.00),
    ("Nc1nc(N)c(-c2ccc(NC(=O)C3CCCO3)cc2)c(COCc2ccccc2)n1 (stereo not drawn)", "=", 6.41),
    ("CCc1nc(N)nc(N)c1-c1ccc2c(c1)nc(C1CCCC1)n2Cc1ccc(S(C)(=O)=O)cc1", "=", 8.10),
    ("Nc1nc(N)c(-c2ccc(NC(=O)c3ccncc3)cc2)c(COCc2ccccc2)n1", "=", 5.51),
    ("CCc1nc(N)nc(N)c1-c1ccc2c(c1)ncn2Cc1ccc(S(C)(=O)=O)cc1", "=", 8.40),
    ("CC(=O)Nc1ccc(-c2c(N)nc(N)nc2COCc2ccccc2)cc1", "=", 5.64),
    ("Nc1nc(N)c(-c2ccc(NC(=O)C3CC3)cc2)c(COCc2ccccc2)n1", "=", 7.18),
    ("CCc1nc(N)nc(N)c1-c1ccc2c(c1)nc(-c1ccccc1)n2Cc1ccc(S(C)(=O)=O)cc1", "=", 7.80),
    ("CN(C(=O)C1CCCC1)c1ccc(-c2c(N)nc(N)nc2COCc2ccccc2)cc1", "=", 5.78),
    ("Nc1nc(N)c(-c2ccc(NC(=O)Cc3ccccc3)cc2)c(COCc2ccccc2)n1", "=", 7.43),
    ("Nc1nc(N)c(-c2ccc(NC(=O)Cc3ccsc3)cc2)c(COCc2ccccc2)n1", "=", 7.15),
    ("Nc1nc(N)c(-c2ccc(NC(=O)Cc3ccsc3Br)cc2)c(COCc2ccccc2)n1", "=", 7.39),
    ("Nc1nc(N)c(-c2ccc(NC(=O)CCc3ccccc3)cc2)c(COCc2ccccc2)n1", "=", 7.33),
    ("Nc1nc(N)c(-c2ccc(NC(=O)C3CCCC3)cc2)c(COCc2ccccc2)n1", "=", 7.74),
    ("CCC(=O)Nc1ccc(-c2c(N)nc(N)nc2COCc2ccccc2)cc1", "=", 6.66),
    ("CC(C)CC(=O)Nc1ccc(-c2c(N)nc(N)nc2COCc2ccccc2)cc1", "=", 7.14),
]
